ASSAY INFO: DUSP6 inhibitors restoring Erk phosphorylation by chemical complementation, primary imaging in DUSP6-transfected HeLa (AID 609)
RUN CONDITIONS: HeLa MKP-3 transfected, phospho-Erk imaging KS statistic; measured here: nuclear pErk red intensity z-score; at 10 µM; stronger effect = higher value; cells stimulated with TPA for 15 min
Each record here notes measured z-score.
Answer with a bare number; do not write a unit.

Example entries begin here.
INSERT INTO measurements (compound, measured_endpoint, measurement) VALUES
  ('CCCOc1cccc(C2C(C(=O)c3ccc(C)o3)=C(O)C(=O)N2CCCN(C)C)c1 (stereo unspecified)', 'z-score', 0.0129),
  ('COC(=O)c1cc(OC)c(OC)cc1N', 'z-score', 0.0446),
  ('Cc1cc(COc2ccccc2OCCN2CCN(C)CC2)no1', 'z-score', 0.134),
  ('COc1cc(C2C(C#N)=C(N)Oc3cc(C)n(Cc4ccccn4)c(=O)c32)cc2c1OCO2 (stereo unspecified)', 'z-score', 1.97),
  ('O=c1[nH]cnc2cc(-c3ccccc3)sc12', 'z-score', 0.87);

Inquiry: Requested read-out: z-score. Entry: O=c1/c(=C\c2cccn2-c2ccccc2)sc2nc3ccccc3n12
Reply text: 0.128

Inquiry: Requested read-out: z-score. Entry: CCCc1cc(=O)oc2c(CN3CCN(C)CC3)c(O)c(Cl)cc12
Reply text: -1.37
